# system.under.test: Thymidine phosphorylase (Homo sapiens, UniProt P19971)
# Sequence (P19971 whole entry): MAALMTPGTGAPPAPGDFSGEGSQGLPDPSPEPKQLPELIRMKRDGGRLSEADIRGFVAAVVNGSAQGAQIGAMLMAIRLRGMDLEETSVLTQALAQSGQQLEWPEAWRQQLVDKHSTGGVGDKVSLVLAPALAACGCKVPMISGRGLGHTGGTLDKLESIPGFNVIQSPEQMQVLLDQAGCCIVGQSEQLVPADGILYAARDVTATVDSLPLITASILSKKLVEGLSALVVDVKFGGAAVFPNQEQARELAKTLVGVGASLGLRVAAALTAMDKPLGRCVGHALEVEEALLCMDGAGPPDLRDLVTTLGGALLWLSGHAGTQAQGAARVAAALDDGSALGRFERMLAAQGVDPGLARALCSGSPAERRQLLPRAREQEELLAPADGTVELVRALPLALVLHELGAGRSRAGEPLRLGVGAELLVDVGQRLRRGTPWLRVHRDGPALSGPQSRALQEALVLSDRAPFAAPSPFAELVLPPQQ
# procedure.summary: Inhibition of catabolic activity of human thymidine phosphorylase
reported.endpoint: IC50 (µM)
Answers are plain numbers, in µM.

Exercise: Requested field: IC50. Item: Oc1cc(NCCc2ccccc2)nc(O)n1
Solution: 148
